Tested on: CCRF-CEM leukemia
Assay: NCI-60 one-dose screen, 48 h
Conditions: 10 µM unless noted
The panel holds about 83,000 compounds, 20% with a hit somewhere; the sample as a whole holds those more often. Calls of active or inactive are those of the source. How the source made its calls: active means growth percent below 10; inactive means the rest.
Labels: active, inactive

| COMPOUND | TARGET_OR_TEST_SYSTEM | CATEGORY_LABEL |
| --- | --- | --- |
| c1ccc2cc(Cn3c(-c4ccc5ccccc5c4)[n+](Cc4ccc5ccccc5c4)c4ccccc43)ccc2c1 | CCRF-CEM leukemia | active |
| COC(=O)[C@@H]1CCCN1C(=O)[C@@H]1CCCN1C(=O)[C@@H](Cc1c[nH]c2ccccc12)NC(=S)Nc1cc(C(F)(F)F)cc(C(F)(F)F)c1 | CCRF-CEM leukemia | inactive |
| CSc1nnc(-c2sc3nnc(-c4ccccc4)c(-c4ccccc4)c3c2O)o1 | CCRF-CEM leukemia | inactive |
| O=C(c1ccc2ncc(-c3nc(NC4CC4)ncc3F)n2c1)N1CCOCC1 | CCRF-CEM leukemia | inactive |
| O=C1c2c(c3c4cc(Br)ccc4[nH]c3c3ccc4ccccc4c23)C(=O)N1O | CCRF-CEM leukemia | inactive |
| Cc1cc(=O)oc2c1ccc1oc(C(=O)c3ccccc3)c(C)c12 | CCRF-CEM leukemia | inactive |
| COc1ccc(-c2nc3sccn3c2/C=C/C(=O)c2cc(OC)c(OC)c(OC)c2)cc1OC | CCRF-CEM leukemia | inactive |
| COc1cccc(C2CC(=O)Nc3cc4c(cc32)CCC4)c1OC (centres undefined) | CCRF-CEM leukemia | active |
| CCOC(=O)c1c(Cl)c2c(n1Cc1cc(OC)cc(OC)c1)-c1oncc1CCC2 | CCRF-CEM leukemia | active |

----------
Test system: RXF 393 renal
Assay: NCI-60 one-dose screen, 48 h (100 = growth as untreated, 0 = no growth, -100 = all killed)
Conditions: 10 µM unless noted
Compounds without any hit were thinned out: in the full panel of roughly 83,000, 20% have a hit.

| MOLECULE | growth (%) |
| --- | --- |
| C=C(C)COC(=O)c1ccccc1C(=O)OCC1(C)CO1 (stereo not drawn) | 117 |
| Clc1ccc(C2=NN(c3ccccc3)[C@H](c3cn(-c4ccccc4)nc3-c3ccccc3)C2)cc1 | 106 |
| Fc1c[c-]c(-c2ccccn2)c(F)c1.Fc1c[c-]c(-c2ccccn2)c(F)c1.[Cl][Pt+].[Cl][Pt+].c1ccc([PH+](C[PH+](c2ccccc2)c2ccccc2)c2ccccc2)cc1 | 34 |
| COc1cc2nc(N3CCC[C@H](NC4=CC(=O)c5ccccc5C4=O)C3)nc(N)c2cc1OC | -76.7 |
| Nc1nc2c(s1)CCc1c-2c(Br)n(Cc2ccccc2)c1Br | 17.9 |
| CCCCCCCCCCCCCCn1c2ccccc2c2c3c(c4c5cc(OC)ccc5oc4c21)C(=O)NC3=O | 122 |
| CC1SC(c2cccc(Oc3ccccc3)c2)N(CCc2cccs2)C1=O (stereo not drawn) | -90.6 |
| O=[N+]([O-])c1cc2c(cc1Br)C1C(C3C2C(Cl)(Cl)C(Cl)=C(Cl)C3(Cl)Cl)C(Cl)(Cl)C(Cl)=C(Cl)C1(Cl)Cl (stereo not drawn) | 96.9 |

----------
Reported growth values for a set of compounds
Tested on: HCT-15 colon
Test: NCI-60 one-dose screen, 48 h (100 = growth as untreated, 0 = no growth, -100 = all killed)
Settings: 10 µM unless noted
This is part of a sample that, as a whole, favours compounds with a hit. Of some 83,000 tested, about 20% had one in any assay. The source made the active and inactive calls. Rule for the calls: active = growth percent below 10; inactive = the rest.

| SMILES | growth |
| --- | --- |
| FC(F)(F)Oc1ccc2c(c1)C[C@H]1C[C@@H](c3ccoc3)N2O1 | 95.1% (inactive) |
| CCOc1ccc(/C=N\N2CCCCCC2)cc1OCC | 62.1% (inactive) |
| O=C1c2ccccc2-c2nnc(-c3ccc(Br)cc3)cc21 | 59.8% (inactive) |
| O=C1c2[nH]cc(CN[C@@H]3CCCN3)c2C(=O)c2c1c(O)c1ccccc1c2O | -38.9% (active) |
| O=c1[nH]c(=S)[nH]c(=O)n1Cc1cccc2ccccc12 | 98.3% (inactive) |
| COC(=O)c1c2c(c(C)[n+]([O-])c1C)C(=O)C=C(NCc1cccc(OC)c1)C2=O | -74.8% (active) |
| COc1ccc(-c2nc3sccn3c2/C=C/C(=O)c2cc(OC)c(OC)c(OC)c2)cc1OC | 22% (inactive) |
| O=C(N/N=C(\CS(=O)(=O)c1ccccc1)c1cc2ccccc2oc1=O)c1ccccc1 | 107% (inactive) |
| N#Cc1c(O)c2c(c(O)c1C#N)C(=O)c1ccccc1C2=O | 26.9% (inactive) |
| COc1cc(Cn2cc(F)c(=O)[nH]c2=O)cc(OC)c1 | 103% [50 µM] (inactive) |
